Where these numbers come from: paper PMC12207370

For each record, write down the corresponding Percentage Seq I.
Target: biotinylated CD59 (Homo sapiens, UniProt P13987)
Construct: Recombinant soluble human CD59 with an additional C-terminal cysteine residue
Sequence (P13987 26-102 limits assumed): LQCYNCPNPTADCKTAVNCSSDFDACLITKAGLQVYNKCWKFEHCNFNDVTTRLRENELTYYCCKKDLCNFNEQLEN
Experiment: mRNA-display cyclic peptide screen against CD59-biotin, NGS abundance after 6th selection round
Conditions: counts normalised by total counts of sample Seq I; percentage of the pool, sheet R6
All answers are understood in %, so give the number only.

Data request, read-out Percentage Seq I, for SKNGLTFLCS 0.016

Data request, read-out Percentage Seq I, for FVRGDRYSVLG 0.045

Data request, read-out Percentage Seq I, for LWGAANYLKVIY 0.046

Data request, read-out Percentage Seq I, for HVFGNRSFTRG 5.324

Data request, read-out Percentage Seq I, for CFARRLSASLGT 0.033

Data request, read-out Percentage Seq I, for FISGSRSWRKQ 0.036

Data request, read-out Percentage Seq I, for CFRFRLNATSS 0.075

Data request, read-out Percentage Seq I, for WILGSRWWTRS 0.097

Data request, read-out Percentage Seq I, for FVRGDLYSVLG 4.958

Data request, read-out Percentage Seq I, for FVRGNSTSVLF 0.020

Data request, read-out Percentage Seq I, for ILGSRDTIKYW 0.118

Data request, read-out Percentage Seq I, for QWNRWYGIDEL 0.075

Data request, read-out Percentage Seq I, for YAWGNRNNAYY 0.060

Data request, read-out Percentage Seq I, for SAWGNRRIQYY 0.034

Data request, read-out Percentage Seq I, for VKYGNSNFVRG 0.660

Data request, read-out Percentage Seq I, for IARGDRNHQFY 0.296

Data request, read-out Percentage Seq I, for CFVNRLSDSLSL 0.048

Data request, read-out Percentage Seq I, for CFSARAILDGGW 0.249

Data request, read-out Percentage Seq I, for SVTGNRDHTRG 0.021

Data request, read-out Percentage Seq I, for CFSRRTSVPNTT 0.209

Data request, read-out Percentage Seq I, for YLSGSSNFTRG 0.042

Data request, read-out Percentage Seq I, for WIRGSRWWTQS 0.033

Data request, read-out Percentage Seq I, for LLGSSSYVKFWY 0.253

Data request, read-out Percentage Seq I, for FVTGNREHTRG 0.025

Data request, read-out Percentage Seq I, for STKNDYNNVPC 0.012

Data request, read-out Percentage Seq I, for IQSGSQSWSRG 0.037

Data request, read-out Percentage Seq I, for YVFGNRSFTRG 0.504

Data request, read-out Percentage Seq I, for AVRGSSFYVWG 0.098

Data request, read-out Percentage Seq I, for FITGNRDHTRG 0.018

Data request, read-out Percentage Seq I, for HVFGSRSFTRG 0.074

Data request, read-out Percentage Seq I, for CLRRHVTASDV 0.040

Data request, read-out Percentage Seq I, for SISGGRDYTRG 0.032

Data request, read-out Percentage Seq I, for CAWGNRYIAYY 0.078

Data request, read-out Percentage Seq I, for SSWAQLPCKR 0.039

Data request, read-out Percentage Seq I, for TILGNKHYVRG 0.140

Data request, read-out Percentage Seq I, for SVGGSRSWTRG 0.129

Data request, read-out Percentage Seq I, for NSCPDWVRGSRT 0.229

Data request, read-out Percentage Seq I, for AVHGSSFYVWG 0.037

Data request, read-out Percentage Seq I, for GYLNECHTLYTR 0.629

Data request, read-out Percentage Seq I, for SKNGLTFLCN 0.181

Data request, read-out Percentage Seq I, for WVYGSRYWRSI 0.030

Data request, read-out Percentage Seq I, for YGASPTSLCSGI 0.166
